Reference for the values: ChEMBL document CHEMBL4513216

Each entry below lists one item and its recorded cytotoxicity at 10 µM value.
experiment: Toxicity liver stage against HepG2, at 10uM; assay type: cell-based; design: test concentration 10 uM, cell line HepG2-A16-CD81EGFP; conditions: human, HepG2-A16-CD81EGFP cells; read-out: INHIBITION

>  <compound>
CC(=O)N1CCC(C(=O)NCCN2CCCCC2)CC1

>  <cytotoxicity at 10 µM (%)>
-5.04

$$$$
>  <compound>
COCc1nc2cc(NCc3sc(C)nc3C)ccc2o1

>  <cytotoxicity at 10 µM (%)>
29.1

$$$$
>  <compound>
Cn1cc(C(=O)NCc2cn3c(n2)CN(CC2CCCC2)CC3)cn1

>  <cytotoxicity at 10 µM (%)>
7.17

$$$$
>  <compound>
O=C(c1cccc(F)c1)N1CCC2(CC1)CC(N1CCOCC1)C2

>  <cytotoxicity at 10 µM (%)>
-8.02

$$$$
>  <compound>
CC(C)(C)C(=O)NCCc1ccn(-c2ccccc2)n1

>  <cytotoxicity at 10 µM (%)>
1.76

$$$$
>  <compound>
COc1cccc(CN2CCC3(CCN(c4ncc(C)cn4)CC3)C2)c1

>  <cytotoxicity at 10 µM (%)>
-6.5

$$$$
>  <compound>
Cc1ccc(-c2nc(CN3CC(n4nc(C)cc4C)C3)no2)cc1

>  <cytotoxicity at 10 µM (%)>
-1.64

$$$$
>  <compound>
COCCNC(=O)[C@H]1C[C@@H]2CCN(CCc3ccccc3)C[C@@H]2O1

>  <cytotoxicity at 10 µM (%)>
-74.5

$$$$
>  <compound>
CCNC(=O)[C@@H]1C[C@H](N)CN1Cc1ccc(Sc2ccc(C)cc2)o1

>  <cytotoxicity at 10 µM (%)>
-48.3

$$$$
>  <compound>
O=C(NC1CCCN(CCc2ccccc2)C1)c1ccccn1 (stereo unspecified)

>  <cytotoxicity at 10 µM (%)>
-5.42

$$$$
>  <compound>
CCN(Cc1cccs1)S(=O)(=O)N(C)C(C)C

>  <cytotoxicity at 10 µM (%)>
-49

$$$$
>  <compound>
CN(CC(=O)N1CCCC1)C(=O)c1ccccc1F

>  <cytotoxicity at 10 µM (%)>
11.7

$$$$
>  <compound>
CNc1cncc(C2CCCN2C(=O)c2ccc3c(c2)CCC3)n1 (stereo unspecified)

>  <cytotoxicity at 10 µM (%)>
-15.1

$$$$
>  <compound>
Cc1cnn(CC2CN(CCc3ccccn3)CCO2)c1 (stereo unspecified)

>  <cytotoxicity at 10 µM (%)>
-4.98

$$$$
>  <compound>
Cc1cccn2c(=O)cc(OC(=O)c3ccccc3)nc12

>  <cytotoxicity at 10 µM (%)>
0.64

$$$$
>  <compound>
CN1CCN(C2CCN(CC(O)c3ccccc3)CC2)C1=O (stereo unspecified)

>  <cytotoxicity at 10 µM (%)>
1.76

$$$$

* * *

Each entry below lists one item and its recorded cytotoxicity at 10 µM value.
assay: Toxicity liver stage against HepG2, at 10uM; format: cell-based; design: test concentration 10 uM, cell line HepG2-A16-CD81EGFP; conditions: human, HepG2-A16-CD81EGFP cells; read-out: INHIBITION

>  <compound>
CN(CCc1ccccn1)C(=O)c1cn(CCN2CCNCC2)nn1

>  <cytotoxicity at 10 µM>
-8.48%

$$$$
>  <compound>
O=C(CCS(=O)(=O)c1ccccc1)NC1CCOC2(CCOCC2)C1 (stereo not given)

>  <cytotoxicity at 10 µM>
7.56%

$$$$
>  <compound>
Cc1cc(=O)n2ncnc2n1CC(O)c1cc(F)ccc1F (stereo not given)

>  <cytotoxicity at 10 µM>
1.7%

$$$$
>  <compound>
O=C(Nc1ccc(F)cc1)N1C[C@@H]2CC[C@H]1CN(Cc1cccnc1)C2

>  <cytotoxicity at 10 µM>
-13.4%

$$$$
>  <compound>
COc1ccc(Oc2ncccc2NC(=O)N2CCOC(C)C2)cc1 (stereo not given)

>  <cytotoxicity at 10 µM>
2.65%

$$$$
>  <compound>
CN1CCN(CCOc2ccc(NC(=O)c3ccoc3)cc2)CC1

>  <cytotoxicity at 10 µM>
-2.09%

$$$$
>  <compound>
COCC(=O)N1CCC2(CC1)CC(c1cnn(C)c1)C(=O)N2 (stereo not given)

>  <cytotoxicity at 10 µM>
7.25%

$$$$
>  <compound>
CCN1CCn2nc(CCC(=O)N3CCCC3)cc2C1

>  <cytotoxicity at 10 µM>
0.685%

$$$$
>  <compound>
O=S(=O)(Cc1ccccc1F)NCCCN1CCCCC1

>  <cytotoxicity at 10 µM>
17.3%

$$$$
>  <compound>
Cc1cc(N2CCCC2Cn2nc(C)cc2C)n2ncnc2n1 (stereo not given)

>  <cytotoxicity at 10 µM>
-2.74%

$$$$
>  <compound>
O=C1CCN(CCCS(=O)(=O)c2ccc(Cl)cc2)CCN1

>  <cytotoxicity at 10 µM>
2.43%

$$$$
>  <compound>
CNS(=O)(=O)Cc1ccccc1CNc1ccc(C#N)cn1

>  <cytotoxicity at 10 µM>
-6.45%

$$$$
>  <compound>
Cc1cc(N2CCCC2c2nccnc2C)ncn1 (stereo not given)

>  <cytotoxicity at 10 µM>
-20.8%

$$$$
>  <compound>
CN(CCCC#N)C1CCCN(Cc2noc(C3CC3)n2)C1 (stereo not given)

>  <cytotoxicity at 10 µM>
-14.5%

$$$$
>  <compound>
Cn1ccnc(Sc2ccc(O)cc2)c1=O

>  <cytotoxicity at 10 µM>
6.64%

$$$$

* * *

Each entry below lists one item and its recorded cytotoxicity at 10 µM value.
test: Toxicity liver stage against HepG2, at 10uM; format: cell-based; parameters: test concentration 10 uM, cell line HepG2-A16-CD81EGFP; conditions: human, HepG2-A16-CD81EGFP cells; read-out: INHIBITION

>  <molecule>
Cc1cccc(CN2CC3(CCN(Cc4ccoc4)CC3)OCC2=O)n1

>  <valueUnits>
%

>  <cytotoxicity at 10 µM>
-3.18

$$$$
>  <molecule>
Cn1ncc2c(N3CCCC(C)(O)C3)nc(C(C)(C)C)nc21 (stereo not drawn)

>  <valueUnits>
%

>  <cytotoxicity at 10 µM>
-43.6

$$$$
>  <molecule>
Cc1ncc2c(n1)CN(CC(=O)Nc1ccncc1)CC2

>  <valueUnits>
%

>  <cytotoxicity at 10 µM>
-8.7

$$$$

* * *

experiment: Toxicity liver stage against HepG2, at 10uM; assay type: cell-based; design: test concentration 10 uM, cell line HepG2-A16-CD81EGFP; conditions: human, HepG2-A16-CD81EGFP cells; read-out: INHIBITION
parameterMeasured: cytotoxicity at 10 µM

>  <molecule>
COC1COC2(CCN(Cc3ccco3)CC2)C1 (stereo unspecified)

>  <measValue>
8.62%

$$$$
>  <molecule>
CCNC(=O)C1CCN(Cn2nc(-c3ccc(F)cc3)oc2=O)CC1

>  <measValue>
-4.71%

$$$$
>  <molecule>
CC(=O)Cn1cc(C#N)c(=O)c2cc(Br)ccc21

>  <measValue>
-7.06%

$$$$
>  <molecule>
COCCN1CCCC12CCN(Cc1cccnc1OC)CC2

>  <measValue>
15.4%

$$$$
>  <molecule>
CCN(Cc1ccccc1)C(=O)c1cc(C2CCCN2C)ccn1 (stereo unspecified)

>  <measValue>
-14.2%

$$$$
>  <molecule>
CN(C)Cc1nc2c(o1)CN(S(=O)(=O)c1cccs1)C2

>  <measValue>
-112%

$$$$
>  <molecule>
CCN(Cc1ccc2c(c1)OCO2)C(=O)c1cccnc1O

>  <measValue>
-9.51%

$$$$
>  <molecule>
Cc1ncsc1CCC(=O)N(C)Cc1nc2ccccc2n1C

>  <measValue>
-143%

$$$$
>  <molecule>
CS(=O)(=O)N1CCC(c2nc3ccc(-c4cccc(F)c4)cn3n2)CC1

>  <measValue>
22.6%

$$$$
>  <molecule>
Cc1nn(C)c2nc(N3CCN(Cc4nccn4C)CC3)sc12

>  <measValue>
-4.66%

$$$$
>  <molecule>
O=C1CC(c2ccncc2)C2(CCN(Cc3cccnc3)CC2)N1 (stereo unspecified)

>  <measValue>
6.26%

$$$$
>  <molecule>
CC(C)N1CCOCC2(CCCN(C(=O)c3cncn3C)C2)C1 (stereo unspecified)

>  <measValue>
-1.09%

$$$$
>  <molecule>
O=C(NCC(c1cccs1)N1CCOCC1)c1ccc(F)cc1Cl (stereo unspecified)

>  <measValue>
-2.27%

$$$$
>  <molecule>
Cc1c(Br)c(C(=O)NC(C)c2ccccc2)nn1C (stereo unspecified)

>  <measValue>
-4.34%

$$$$
>  <molecule>
COc1ncc(NC(=O)c2ccco2)c(OC)n1

>  <measValue>
-3.74%

$$$$
>  <molecule>
COc1cccc(C(C)Nc2ncnc3c2NC(=O)CN3)c1 (stereo unspecified)

>  <measValue>
9.76%

$$$$

* * *

assay: Toxicity liver stage against HepG2, at 10uM; format: cell-based; design: test concentration 10 uM, cell line HepG2-A16-CD81EGFP; conditions: human, HepG2-A16-CD81EGFP cells; read-out: INHIBITION
parameterMeasured: cytotoxicity at 10 µM (%)

>  <compound>
CCCN(CCc1ccccc1)C(=O)c1ccccc1NCC(=O)O

>  <measValue>
7.38

$$$$
>  <compound>
Oc1cc(-c2ccccn2)nc(C2CCN(Cc3ccncc3)CC2)n1

>  <measValue>
-7.56

$$$$
>  <compound>
Cc1cccc(CN2C(=O)OCC2CO)c1F (configuration not stated)

>  <measValue>
-2.13

$$$$
>  <compound>
NC(=O)C1CCN(C(=O)c2cccn2Cc2cccs2)C1 (configuration not stated)

>  <measValue>
-8.5

$$$$
>  <compound>
N#Cc1ccc(OCC(O)CN2CCC(c3ccn[nH]3)CC2)cc1 (configuration not stated)

>  <measValue>
-3.33

$$$$
>  <compound>
O=C(c1cnccn1)N1C[C@H]2CC[C@@H](C1)N(C(=O)Cc1ccsc1)C2

>  <measValue>
-13.3

$$$$
>  <compound>
O=C(NCCCN1CCC(OC2CCCCC2)CC1)C1CCCC1

>  <measValue>
2.24

$$$$
>  <compound>
O=c1[nH]cnc2[nH]c(N3CCOCC3)nc12

>  <measValue>
2.9

$$$$
>  <compound>
CCn1c(C)cc(C(=O)N2CCCC(c3nc(C)no3)C2)c1C (configuration not stated)

>  <measValue>
-3.39

$$$$
>  <compound>
CC(C)Oc1ncccc1CNC(=O)N1CCC(C(N)=O)C1 (configuration not stated)

>  <measValue>
-6.08

$$$$
>  <compound>
Cc1nc(C)n(CC(=O)N2CCCC(c3nc(C)n4c(C)csc34)C2)n1 (configuration not stated)

>  <measValue>
2.08

$$$$
>  <compound>
Cc1ncsc1CCCNC(=O)C1CC2(CCNCC2)CN1C (configuration not stated)

>  <measValue>
9.18

$$$$
